Experiment: Stability of mRNA-LNPs according to storage temperature and duration
Format: physicochemical
Details: fLuc mRNA-LNP stored at 25° C., day 1

{"columns": ["Molecule", "Uom", "Size (nm) D-1"],
 "data": [
  ["CCCCCCCCCCCOC(=O)CCCCCN(CCCCCCCC(=O)OC(CCCCCCCC)CCCCCCCC)CC(O)CCCCNC(=O)c1ncc[nH]1 (stereo not shown) [Compound 33]", "nm", 112.8],
  ["CCCCCCCCCCCOC(=O)CCCCCN(CCCCCCCC(=O)OC(CCCCCCCC)CCCCCCCC)CC(O)CCCCNC(=O)c1cn(C)cn1 (stereo not shown) [Compound 37]", "nm", 114.5],
  ["CCCCCCCCCCCOC(=O)CCCCCN(CCCCCCCC(=O)OC(CCCCCCCC)CCCCCCCC)CC(O)CCCCNC(=O)c1c[nH]c(O)n1 (stereo not shown) [Compound 35]", "nm", 123.4],
  ["CCCCCCCCCCCOC(=O)CCCCCN(CCCCCCCC(=O)OC(CCCCCCCC)CCCCCCCC)CC(O)CCCCNC(=O)c1c(O)ccn1C (stereo not shown) [Compound 24]", "nm", 136.9],
  ["CCCCCCCCCCCOC(=O)CCCCCN(CCCCCCCC(=O)OC(CCCCCCCC)CCCCCCCC)CC(O)CCCCNC(=O)c1c[nH]cn1 (stereo not shown) [Compound 34]", "nm", 116.7],
  ["CCCCCCCCCCCOC(=O)CCCCCN(CCCCCCCC(=O)OC(CCCCCCCC)CCCCCCCC)CC(O)CCCCNC(=O)c1nccn1C (stereo not shown) [Compound 36]", "nm", 111.9],
  ["CCCCCCCCCCCOC(=O)CCCCCN(CCCCCCCC(=O)OC(CCCCCCCC)CCCCCCCC)CC(O)CCCCNC(=O)c1cccn1C (stereo not shown) [Compound 18]", "nm", 124.6]
]}
